Where do these numbers come from? They come from patent US7449466B2.

Biological target: steroid sulfatase (Rattus norvegicus)
Construct: The livers and uteri were separately minced with scissors and suspended in cooled PBS containing 250 mM sucrose; from tissue; host or cells: liver and uterus of ovariectomized female SD rats (2,000 x g supernatant of homogenate)
Test: Steroid sulfatase inhibitory activity (in vivo), liver and uterus of ovariectomized rats after oral dosing
Conditions: liver; 0.5 mg/kg p.o. once a day for seven days; ovariectomized female SD rats
Please respond with reported Inhibitiory rate (0.5 mg/kg, p.o., %) Liver for every item in the list.
The answer is to be given in %; state only the numeric part.

(Q) What Inhibitiory rate (0.5 mg/kg, p.o., %) Liver value was documented for this compound, NS(=O)(=O)Oc1ccc(N2CCN(CCc3ccc(Cl)cc3)CC2)cc1F [Example 22] ?
(A) 99.85

(Q) What Inhibitiory rate (0.5 mg/kg, p.o., %) Liver value was documented for this compound, NS(=O)(=O)Oc1cc(F)c(N2CCN(CCc3ccccc3)CC2)cc1F [Example 43] ?
(A) 99.90

(Q) What Inhibitiory rate (0.5 mg/kg, p.o., %) Liver value was documented for this compound, NS(=O)(=O)Oc1cc(F)c(N2CCN(S(=O)(=O)Cc3ccc(Cl)cc3)CC2)cc1F [Example 56] ?
(A) 99.37

====

Target: steroid sulfatase (Rattus norvegicus, UniProt P15589)
Construct: The livers and uteri were separately minced with scissors and suspended in cooled PBS containing 250 mM sucrose; from tissue; host or cells: liver and uterus of ovariectomized female SD rats (2,000 x g supernatant of homogenate)
Sequence (P15589 20-577): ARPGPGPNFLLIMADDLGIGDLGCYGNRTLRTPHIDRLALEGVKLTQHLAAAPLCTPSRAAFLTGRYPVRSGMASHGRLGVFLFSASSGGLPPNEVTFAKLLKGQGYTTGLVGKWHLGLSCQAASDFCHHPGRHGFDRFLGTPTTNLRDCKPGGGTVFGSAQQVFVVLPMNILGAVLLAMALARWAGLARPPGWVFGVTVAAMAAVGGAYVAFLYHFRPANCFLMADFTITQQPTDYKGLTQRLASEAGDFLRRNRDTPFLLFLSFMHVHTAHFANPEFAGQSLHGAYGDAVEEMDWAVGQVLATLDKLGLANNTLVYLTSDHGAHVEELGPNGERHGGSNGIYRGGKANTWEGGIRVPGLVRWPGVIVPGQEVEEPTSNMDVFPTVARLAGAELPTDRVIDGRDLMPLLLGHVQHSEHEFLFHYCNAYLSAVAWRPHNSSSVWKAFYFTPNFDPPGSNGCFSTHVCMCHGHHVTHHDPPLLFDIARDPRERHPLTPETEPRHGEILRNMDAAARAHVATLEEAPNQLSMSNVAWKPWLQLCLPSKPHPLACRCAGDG
Experiment: Steroid sulfatase inhibitory activity (in vivo), liver and uterus of ovariectomized rats after oral dosing
Conditions: liver; 0.5 mg/kg p.o. once a day for seven days; ovariectomized female SD rats
Method: (2) Measurement of Steroid Sulfatase Inhibitory Activity (in vivo): To six/group of female SD rats which had undergone ovariectomy, the test compounds as each suspended in 0.5% polyoxyethylene (20) sorbitan monooleate (Tween 80) were orally administered once a day for seven days. On the next day of the last administration, the rats were sacrificed under ether anesthesia. […] Protein concentration of each of the supernatant was measured by Bradford's method (Anal. Biochem., 72, 248-254 (1976)). […]
Please respond with reported Inhibitiory rate (0.5 mg/kg, p.o., %) Liver for every item in the list.
The answer is to be given in %; state only the numeric part.

(Q) What Inhibitiory rate (0.5 mg/kg, p.o., %) Liver value was documented for this molecule, NS(=O)(=O)Oc1ccc(N2CCN(CCCC3CCCCC3)CC2)cc1F ?
(A) 98.30

(Q) What Inhibitiory rate (0.5 mg/kg, p.o., %) Liver value was documented for this molecule, NS(=O)(=O)Oc1cc(F)c(N2CCC(CCCc3ccccc3)CC2)cc1F.O=S(=O)(O)c1ccccc1 ?
(A) 100.00

(Q) What Inhibitiory rate (0.5 mg/kg, p.o., %) Liver value was documented for this molecule, NS(=O)(=O)Oc1cc(F)c(N2CCN(CCCC3CCCCC3)CC2)cc1F ?
(A) 99.09

(Q) What Inhibitiory rate (0.5 mg/kg, p.o., %) Liver value was documented for this molecule, NS(=O)(=O)Oc1cc(F)c(N2CCC(CCCc3ccccc3)CC2)cc1F ?
(A) 99.85

====

Target: UniProtKB P08842
Sequence (P08842 22-583): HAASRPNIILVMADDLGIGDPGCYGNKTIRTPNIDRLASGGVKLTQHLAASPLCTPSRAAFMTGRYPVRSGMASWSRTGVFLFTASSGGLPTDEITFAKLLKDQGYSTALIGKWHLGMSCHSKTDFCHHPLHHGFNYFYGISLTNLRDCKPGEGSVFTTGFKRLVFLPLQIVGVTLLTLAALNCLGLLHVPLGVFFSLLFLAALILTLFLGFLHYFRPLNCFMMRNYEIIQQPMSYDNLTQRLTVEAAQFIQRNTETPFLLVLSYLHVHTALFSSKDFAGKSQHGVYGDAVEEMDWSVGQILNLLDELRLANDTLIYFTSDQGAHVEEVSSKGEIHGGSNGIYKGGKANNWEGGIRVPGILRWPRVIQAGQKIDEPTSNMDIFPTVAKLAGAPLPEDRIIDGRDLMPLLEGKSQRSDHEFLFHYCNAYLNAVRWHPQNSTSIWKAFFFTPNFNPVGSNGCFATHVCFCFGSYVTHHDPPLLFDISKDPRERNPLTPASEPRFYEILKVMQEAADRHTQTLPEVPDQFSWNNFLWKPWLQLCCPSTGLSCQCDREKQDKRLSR
Assay: Steroid sulfatase inhibitory activity (in vitro), microsomal fraction of MCF-7 cells, [3H]estrone-3-sulfate hydrolysis
Type: biochemical
Set-up: microsomal fraction of MCF-7 human breast cancer cells was used; endogenous in cells; host or cells: MCF-7 human breast cancer cells (microsomal fraction)
Conditions: 10^−6 M test compound; MCF-7 microsomal fraction; 37° C., 30 minutes
measureName: Inhibitory rate (%) (10^−6 M)
The answer is to be given in %; state only the numeric part.

(Q) What Inhibitory rate (%) (10^−6 M) value was documented for this compound, NS(=O)(=O)Oc1cc(F)c(N2CCN(CCc3ccccc3)CC2)cc1F [Example 43] ?
(A) 98.5

(Q) What Inhibitory rate (%) (10^−6 M) value was documented for this compound, NS(=O)(=O)Oc1cc(F)c(N2CCC(CCCc3ccccc3)CC2)cc1F.O=S(=O)(O)c1ccccc1 [Example 59] ?
(A) 99.0

(Q) What Inhibitory rate (%) (10^−6 M) value was documented for this compound, NS(=O)(=O)Oc1ccc(N2CCN(CCc3ccc(Cl)cc3)CC2)cc1F [Example 22] ?
(A) 97.3

(Q) What Inhibitory rate (%) (10^−6 M) value was documented for this compound, NS(=O)(=O)Oc1ccc(N2CCN(CCCC3CCCCC3)CC2)cc1F [Example 24] ?
(A) 88.8

(Q) What Inhibitory rate (%) (10^−6 M) value was documented for this compound, NS(=O)(=O)Oc1cc(F)c(N2CCN(S(=O)(=O)Cc3ccc(Cl)cc3)CC2)cc1F [Example 56] ?
(A) 99.9

(Q) What Inhibitory rate (%) (10^−6 M) value was documented for this compound, NS(=O)(=O)Oc1cc(F)c(N2CCC(CCCc3ccccc3)CC2)cc1F [Example 37] ?
(A) 98.9

(Q) What Inhibitory rate (%) (10^−6 M) value was documented for this compound, NS(=O)(=O)Oc1cc(F)c(N2CCN(CCCC3CCCCC3)CC2)cc1F [Example 45] ?
(A) 98.5

(Q) What Inhibitory rate (%) (10^−6 M) value was documented for this compound, CCCCCCCCS(=O)(=O)N1CCN(c2cc(F)c(OS(N)(=O)=O)cc2F)CC1 [Example 52] ?
(A) 100.0

(Q) What Inhibitory rate (%) (10^−6 M) value was documented for this compound, NS(=O)(=O)Oc1cc(F)c(N2CCN(S(=O)(=O)c3ccc(Cl)cc3)CC2)cc1F [Example 55] ?
(A) 100.0

(Q) What Inhibitory rate (%) (10^−6 M) value was documented for this compound, CC(C)(C)c1ccc(C(=O)CCCN2CCN(c3cc(F)c(OS(N)(=O)=O)cc3F)CC2)cc1 [Example 48] ?
(A) 100.0

====

Target: steroid sulfatase (Homo sapiens)
Experiment: Steroid sulfatase inhibitory activity (in vitro), microsomal fraction of MCF-7 cells, [3H]estrone-3-sulfate hydrolysis
Type: biochemical
Set-up: microsomal fraction of MCF-7 human breast cancer cells was used; endogenous in cells; host or cells: MCF-7 human breast cancer cells (microsomal fraction)
Conditions: 10^−7 M test compound; MCF-7 microsomal fraction; 37° C., 30 minutes
Please respond with reported Inhibitory rate (%) (10^−7 M) for every item in the list.
The answer is to be given in %; state only the numeric part.

(Q) What Inhibitory rate (%) (10^−7 M) value was documented for this compound, NS(=O)(=O)Oc1cc(F)c(N2CCC(CCCc3ccccc3)CC2)cc1F ?
(A) 93.6

(Q) What Inhibitory rate (%) (10^−7 M) value was documented for this compound, NS(=O)(=O)Oc1ccc(N2CCN(CCCC3CCCCC3)CC2)cc1F ?
(A) 31.1

(Q) What Inhibitory rate (%) (10^−7 M) value was documented for this compound, NS(=O)(=O)Oc1ccc(N2CCN(CCc3ccc(Cl)cc3)CC2)cc1F ?
(A) 85.0

(Q) What Inhibitory rate (%) (10^−7 M) value was documented for this compound, NS(=O)(=O)Oc1cc(F)c(N2CCN(S(=O)(=O)Cc3ccc(Cl)cc3)CC2)cc1F ?
(A) 98.4

(Q) What Inhibitory rate (%) (10^−7 M) value was documented for this compound, NS(=O)(=O)Oc1cc(F)c(N2CCN(CCCC3CCCCC3)CC2)cc1F ?
(A) 88.6

(Q) What Inhibitory rate (%) (10^−7 M) value was documented for this compound, CC(C)(C)c1ccc(C(=O)CCCN2CCN(c3cc(F)c(OS(N)(=O)=O)cc3F)CC2)cc1 ?
(A) 95.9

(Q) What Inhibitory rate (%) (10^−7 M) value was documented for this compound, NS(=O)(=O)Oc1cc(F)c(N2CCC(CCCc3ccccc3)CC2)cc1F.O=S(=O)(O)c1ccccc1 ?
(A) 95.4

(Q) What Inhibitory rate (%) (10^−7 M) value was documented for this compound, CCCCCCCCS(=O)(=O)N1CCN(c2cc(F)c(OS(N)(=O)=O)cc2F)CC1 ?
(A) 99.3

(Q) What Inhibitory rate (%) (10^−7 M) value was documented for this compound, NS(=O)(=O)Oc1cc(F)c(N2CCN(CCc3ccccc3)CC2)cc1F ?
(A) 87.0

(Q) What Inhibitory rate (%) (10^−7 M) value was documented for this compound, NS(=O)(=O)Oc1cc(F)c(N2CCN(S(=O)(=O)c3ccc(Cl)cc3)CC2)cc1F ?
(A) 97.5
